Numbers sourced from the supplement of paper PMC10065799.

# Tested on: AncSZ;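 also: 11-residue human phosphosite peptides and single-mutation variants displayed on the E. coli surface, counted by deep sequencing, each peptide's frequency after selection divided by its frequency in the unselected input library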;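 also: frequency after pTyr selection over input frequency; kinase dosed for 20-30% of maximal phosphorylation in three min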
# experimental.details: phosphorylation enrichment, bacterial display (enrichment ratio); higher = better substrate or ligand; peptides without Tyr show the background
Mark F for phosphorylation enrichment values under 0.9, and T for everything at or above.

INPUT: Check this sequence for phosphorylation enrichment at or above 0.9: RGNMYYENSYA [EGFR_Y113]
OUTPUT: T

INPUT: Now the sequence NDHHFYLEGTL [ALDOB_Y223_V222F]
OUTPUT: T

INPUT: Now the sequence RAFRHYLLKQK [SCN2A_Y1919_R1918H_YF]
OUTPUT: T

INPUT: Now the sequence AHAGEHGAEAL [HBA1_Y25_Y25H]
OUTPUT: F

INPUT: Now the sequence KAESWYQTKYE [KRT75_Y342_E337K]
OUTPUT: F

INPUT: Now the sequence FIRKDYEACKA [BBS4_Y48_YF]
OUTPUT: F

INPUT: Now the sequence IIEDPYFGNDS [ACP1_Y132_YF]
OUTPUT: T

INPUT: Now the sequence LEKRAYICAHP [ACAD9_Y611]
OUTPUT: T

INPUT: Now the sequence NSNAAYEESHF [LRIF1_Y714_Q716E]
OUTPUT: F

INPUT: Now the sequence LVIIKYLPEWT [PSEN1_Y240_F237I]
OUTPUT: T

INPUT: Now the sequence HGTKVYIDPFT [EPHB4_Y590]
OUTPUT: F

INPUT: Now the sequence NDDDVYRSLEE [VAV2_Y142]
OUTPUT: T

INPUT: Now the sequence TKEPKYEGAGS [KIAA1210_Y1615]
OUTPUT: F

INPUT: Now the sequence REQREYLEQLN [CCDC88B_Y1277_D1279E]
OUTPUT: T

INPUT: Now the sequence FGCGMYSHLQG [LGR4_Y848_D844G_YF]
OUTPUT: T

INPUT: Now the sequence HLQQSNLPRGT [TEX45_Y396_Y396N]
OUTPUT: F

INPUT: Now the sequence LEDPMYDIIRD [RP9_Y142_H137L]
OUTPUT: T

INPUT: Now the sequence GEEIKYMLWLS [OTC_Y55]
OUTPUT: T

INPUT: Now the sequence TNRSFYFKPSL [NUP153_Y382_V381F]
OUTPUT: T

INPUT: Now the sequence FKGKNYKPLDL [RPL35_Y78_K77N_YF]
OUTPUT: F

INPUT: Now the sequence KKLHEYNTQFQ [PIK3R1_Y452]
OUTPUT: F

INPUT: Now the sequence LLSVAYKNVVG [YWHAG_Y49]
OUTPUT: T

INPUT: Now the sequence GKMPQYLESMQ [CYB5R3_Y130_S128P]
OUTPUT: F

INPUT: Now the sequence ILTFKYLQKPM [KIT_Y547_YF]
OUTPUT: T

INPUT: Now the sequence APSEFYDGDHD [HDAC3_Y414_N411S]
OUTPUT: T

INPUT: Now the sequence IHADICRWFNI [MARS1_Y344_Y344C]
OUTPUT: T

INPUT: Now the sequence EFENSYIFDIN [GAB1_Y83]
OUTPUT: T

INPUT: Now the sequence VTAALYGRLFE [BTD_Y536_YF]
OUTPUT: F
